Value Kind: melting point

1. COc1cc(CCN2CCN(c3nsc4ccccc34)CC2)c(NC(=O)Cc2cccs2)cc1OC ... 135 °C
2. COc1cc(CCN2CCN(c3nsc4ccccc34)CC2)c(NC(=O)NC2CCCCC2)cc1OC ... 156 °C

*Q* Name the recorded melting point of the compound listed here: COc1cc(CCN2CCN(c3nsc4ccccc34)CC2)c(NS(=O)(=O)c2ccccc2C)cc1OC
*A* 187 °C

*Q* Name the recorded melting point of the compound listed here: Cc1nc(S(=O)(=O)Nc2ccc(OCCN3CCN(c4nsc5ccccc45)CC3)cc2)cn1C
*A* 227 °C

*Q* Name the recorded melting point of the compound listed here: COc1cc(CCN2CCN(c3nsc4ccccc34)CC2)c(NS(=O)(=O)c2cn(C)c(C)n2)cc1OC
*A* 233 °C

*Q* Name the recorded melting point of the compound listed here: COc1cc(CCN2CCN(c3nsc4ccccc34)CC2)c(NC(=O)Nc2c(C)cccc2C)cc1OC
*A* 96 °C

*Q* Name the recorded melting point of the compound listed here: CC(C)=CC(=O)Nc1ccc(F)cc1CCN1CCN(c2nsc3ccccc23)CC1
*A* 175 °C

*Q* Name the recorded melting point of the compound listed here: O=C1c2ccccc2CN1c1ccc(CCN2CCN(c3nsc4ccccc34)CC2)cc1
*A* 175.9 °C

*Q* Name the recorded melting point of the compound listed here: COc1cc(CCN2CCN(c3nsc4ccccc34)CC2)c(NC(=O)Nc2ccc(F)cc2)cc1OC
*A* 211 °C
